# Test system: Serum Glucocorticoid-regulated Kinase-1 (SGK-1) (Homo sapiens, UniProt O00141, S422D)
# Construct: a truncated form of the human enzyme that included amino acids 61-431; 6xHis (N)
# Sequence (O00141 61-431 S422D): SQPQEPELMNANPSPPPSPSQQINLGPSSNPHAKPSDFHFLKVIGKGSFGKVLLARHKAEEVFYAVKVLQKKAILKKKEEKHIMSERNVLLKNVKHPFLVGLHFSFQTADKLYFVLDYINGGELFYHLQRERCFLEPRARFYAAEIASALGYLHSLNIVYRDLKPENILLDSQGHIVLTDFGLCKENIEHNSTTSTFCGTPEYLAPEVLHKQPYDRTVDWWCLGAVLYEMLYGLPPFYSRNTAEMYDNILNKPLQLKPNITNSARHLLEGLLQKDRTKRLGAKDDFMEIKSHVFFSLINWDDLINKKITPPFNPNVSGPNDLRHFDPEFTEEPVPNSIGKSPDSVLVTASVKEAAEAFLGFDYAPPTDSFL
# Test: SGK-1 Enzyme Assay (SGK1e), substrate phosphorylation, scintillation proximity
# Experimental context: truncated human SGK-1 (aa 61-431, S422D), 10 μM ATP, Crosstide substrate
Measure: IC50

Use the examples below as a reference point.
O=C(/C=C/c1n[nH]c2ccccc12)Nc1cccc(C(=O)c2ccccc2)c1: < 1 µM
O=C(/C=C/c1n[nH]c2ccccc12)Nc1ccc2ncsc2c1: < 1 µM
CC(C)CNC(=O)/C=C/c1n[nH]c2ccccc12: 1 to 10 µM
N#Cc1ccccc1NC(=O)/C=C/c1n[nH]c2ccccc12: < 1 µM

So, `CCCN(C)CCOc1ccc(NC(=O)/C=C/c2n[nH]c3ccccc23)cc1OC` ? Its IC50 was < 1 µM

IC50 in this record for `O=C(/C=C/c1n[nH]c2ccccc12)Nc1ccc(C(=O)NCCc2cccnc2)cc1` : < 1 µM

---

// pIC50 lookup, one value per entry
# Test system: Serum Glucocorticoid-regulated Kinase-1 (SGK-1) (Homo sapiens, UniProt O00141, S422D)
# Construct: a truncated form of the human enzyme that included amino acids 61-431; 6xHis (N)
# Test: SGK-1 Enzyme Assay (SGK1e), substrate phosphorylation, scintillation proximity
# Experimental context: truncated human SGK-1 (aa 61-431, S422D), 10 μM ATP, Crosstide substrate
# Protocol: Compounds of the present invention were tested for Serum Glucocorticoid-regulated Kinase-1 (SGK-1) protein serine/threonine kinase inhibitory activity in substrate phosphorylation assays using enzyme purified from a baculovirus expression vector system. […] The data for dose responses were plotted as % Control calculated with the data reduction formula 100*(U1-C2)/(C1-C2) versus concentration of compound and fitted to the curve described by: […]
pIC50: −log10 of the molar value.

CCOC(=O)C1CCN(C(=O)/C=C/c2n[nH]c3ccccc23)CC1 [Example 27]: 5.00 to 6.00
O=C(/C=C/c1n[nH]c2ccccc12)N1CCC2(CC1)C(=O)NCN2c1ccccc1 [Example 30]: > 6.00
CCN(Cc1ccncc1)C(=O)c1cccc(NC(=O)/C=C/c2n[nH]c3ccccc23)c1 [Example 41]: > 6.00

The compound listed as COc1cc(NC(=O)/C=C/c2n[nH]c3ccccc23)ccc1OCCN(C(C)C)C(C)C [Example 15] shows pIC50 equal to > 6.00
